- System Tested: LHRH binding sites on EFO-27 human ovarian cancer cells (human)
- Measurement Notes: competition with [125I-Tyr8]BRU-2477 on EFO-27 cells
Non-standard residues stand in square brackets, D forms with d. Bpa = N[C@@H](Cc1ccc(C(=O)c2ccccc2)cc1)C(=O)O; DO3A10CM = not defined here; Bpa4 = non-natural residue; Amfe4 = not defined here; Cegly = not defined here; azaGly = NNC(=O)O; Sar = CNCC(=O)O
Measure Name: EC50 (nM)
Kindly answer with a numeric value in nM, unit omitted.

The recorded EC50 for XHWSHXWXPX (DO3A10CM on N-terminus; AA1 Sar; AA6 Darg; AA8 Nal2; AA10 azaGly-NH2) [BRU-2624] is 2010

The reported value for XRWSHXWXP (DO3A10CM on N-terminus; AA1 Dnal2; AA6 Darg; AA8 Bpa4; AA10 Az23m2po-NH2) [BRU-3021] in terms of EC50 is 500

Item: DO3A10CM-G[Cegly]HWSHRW[Bpa]P[azaGly]-NH2 (not fully specified (residue 7); reading uncertain; also: AA6 Darg prints R) [BRU-2875] | EC50: 8700

// field: EC50; key: DO3A10CM-[Sar][Amfe4]WSH[dR]W[Bpa4]P[azaGly]-NH2 (reading uncertain) [BRU-2756] ; value = 280
